# Assay Protocol: HCT116 colon cancer cell growth inhibition, primary screen, CellTiter-Glo luminescence, NPC library (AID 1117342)
# Applied Conditions: at 20 µM (top of the series)
Calls of active or inactive are those of the source.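 The calls were made as follows: active = compounds that lower survival of HCT116 colon cancer cells in the luminescence readout, no numeric limit stated; inactive = the rest.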
Classes used: active, inactive

>  <Molecule>
CCCCc1oc2ccccc2c1C(=O)c1cc(I)c(OCCN(CC)CC)c(I)c1

>  <Group>
active

$$$$
>  <Molecule>
COc1ccc2c(c1)CCCC2=O

>  <Group>
inactive

$$$$
>  <Molecule>
C/C=C(/C(=C/C)c1ccc(OC(C)=O)cc1)c1ccc(OC(C)=O)cc1

>  <Group>
active

$$$$
>  <Molecule>
CCCCS(=O)(=O)N[C@@H](Cc1ccc(OCCCCC2CCNCC2)cc1)C(=O)O

>  <Group>
active

$$$$
>  <Molecule>
CCC(C(=O)OCCN(CC)CC)c1ccccc1 (stereo unspecified)

>  <Group>
inactive

$$$$
>  <Molecule>
CCCC(=O)Nc1ccc(O)c(C(C)=O)c1

>  <Group>
inactive

$$$$
